// data source = patent US20240360165A1

Target: CDK2/Cyclin E1 complex (Homo sapiens, UniProt P24941)
Experiment: CDK2 inhibition assay (Caliper/LabChip EZ Reader kinase assay)
Format: biochemical
Settings: Table 1; CDK2/Cyclin E1 0.5 nM, ATP 2 mM, 35 min at 27° C.; listed as 109
pIC50: −log10 of the molar value.
observable: pIC50

INSERT INTO results (molecule, system_name, observable, observed_value) VALUES
  ('CS(=O)(=O)c1c(C#N)ccc2c(-c3nc(N[C@H]4CCCNC4)ncc3Cl)c[nH]c12 [Compound 294]', 'CDK2/Cyclin E1 complex (Homo sapiens, UniProt P24941)', 'pIC50', '5.30 to 6.70');

====

Biological target: CDK2/Cyclin E1 complex (Homo sapiens)
Experiment: CDK2 inhibition assay (Caliper/LabChip EZ Reader kinase assay)
Type: biochemical
Details: Table 1; CDK2/Cyclin E1 0.5 nM, ATP 2 mM, 35 min at 27° C.
observable: IC50

INSERT INTO results (molecule, system_name, observed_value) VALUES
  ('CC[C@H]1CC[C@H](Nc2ncc(C(F)(F)F)c(-c3c[nH]c4ccccc34)n2)CN1', 'CDK2/Cyclin E1 complex (Homo sapiens)', '0.2 to 5 µM'),
  ('CC(C)S(=O)(=O)c1ccc2c(-c3nc(N[C@H]4CCCNC4)ncc3C(F)(F)F)c[nH]c2c1', 'CDK2/Cyclin E1 complex (Homo sapiens)', '0.2 to 5 µM'),
  ('FC(F)(F)c1cnc(NC2C3CCC2NC3)nc1-c1c[nH]c2ccccc12 (stereo not shown)', 'CDK2/Cyclin E1 complex (Homo sapiens)', '0.2 to 5 µM'),
  ('O=C(c1ccc2c(-c3nc(N[C@H]4CCCNC4)ncc3C(F)(F)F)c[nH]c2c1)N1CC[C@](O)(C(F)(F)F)C1 (single isomer, unassigned)', 'CDK2/Cyclin E1 complex (Homo sapiens)', '0.2 to 5 µM'),
  ('N#Cc1cn(-c2ccc3c(-c4nc(NC5CCCNC5)ncc4C(F)(F)F)c[nH]c3c2)cn1 (stereo not shown)', 'CDK2/Cyclin E1 complex (Homo sapiens)', '> 5 µM'),
  ('CO[C@H]1CCN(C(=O)c2ccc3c(-c4nc(N[C@H]5CCCNC5)ncc4C(F)(F)F)c[nH]c3c2)C1', 'CDK2/Cyclin E1 complex (Homo sapiens)', '> 5 µM'),
  ('CNS(=O)(=O)c1ccc2c(-c3nc(N[C@H]4CCCNC4)ncc3C(F)(F)F)c[nH]c2c1', 'CDK2/Cyclin E1 complex (Homo sapiens)', '0.2 to 5 µM');

====

Parameter: IC50. Scope: all listed entries.
Target: CDK2/Cyclin E1 complex (Homo sapiens, UniProt P24941)
Assay: CDK2 inhibition assay (Caliper/LabChip EZ Reader kinase assay)
Type: biochemical
Details: Table 1; CDK2/Cyclin E1 0.5 nM, ATP 2 mM, 35 min at 27° C.
observable: IC50

INSERT INTO results (compound, system_name, observed_value) VALUES
  ('FC(F)Sc1ccc2c(-c3nc(N[C@H]4CCCNC4)ncc3C(F)(F)F)c[nH]c2c1 [Compound 374]', 'CDK2/Cyclin E1 complex (Homo sapiens, UniProt P24941)', '0.2 to 5 µM'),
  ('CC(C)C1CCC(Nc2ncc(C(F)(F)F)c(-c3c[nH]c4ccccc34)n2)CN1 (stereo not drawn) [Compound 260]', 'CDK2/Cyclin E1 complex (Homo sapiens, UniProt P24941)', '> 5 µM'),
  ('CC1(C)CNC[C@@H](Nc2ncc(Cl)c(-c3c[nH]c4c(S(C)(=O)=O)c(C#N)ccc34)n2)C1 [Compound 382]', 'CDK2/Cyclin E1 complex (Homo sapiens, UniProt P24941)', '0.2 to 5 µM'),
  ('FC(F)(F)c1cnc(N[C@H]2CCCNC2)nc1-c1c[nH]c2cc(-c3cc[nH]n3)ccc12 [Compound 291]', 'CDK2/Cyclin E1 complex (Homo sapiens, UniProt P24941)', '> 5 µM'),
  ('N#Cc1ccc2c(-c3nc(N[C@@H]4CCC5(CCC5)NC4)ncc3C(F)(F)F)c[nH]c2c1 (single isomer, unassigned) [Compound 377]', 'CDK2/Cyclin E1 complex (Homo sapiens, UniProt P24941)', '> 5 µM'),
  ('OCc1ncccc1-c1ccc2c(-c3nc(N[C@H]4CCCNC4)ncc3C(F)(F)F)c[nH]c2c1 [Compound 323]', 'CDK2/Cyclin E1 complex (Homo sapiens, UniProt P24941)', '0.2 to 5 µM'),
  ('FC(F)(F)c1cnc(N[C@H]2CCCNC2)nc1-c1c[nH]c2c(-c3cn[nH]c3)cccc12 [Compound 170]', 'CDK2/Cyclin E1 complex (Homo sapiens, UniProt P24941)', '0.2 to 5 µM'),
  ('N#Cc1ccc2c(-c3nc(N[C@@H]4CNC[C@@H](F)C4)ncc3C(F)(F)F)c[nH]c2c1 [Compound 368]', 'CDK2/Cyclin E1 complex (Homo sapiens, UniProt P24941)', '> 5 µM'),
  ('CP(C)(=O)c1cccc2c(-c3nc(N[C@H]4CCCNC4)ncc3C(F)(F)F)c[nH]c12 (single isomer, unassigned) [Compound 353]', 'CDK2/Cyclin E1 complex (Homo sapiens, UniProt P24941)', '0.2 to 5 µM'),
  ('Cc1cn(-c2cccc3c(-c4nc(N[C@H]5CCCNC5)ncc4C(F)(F)F)c[nH]c23)cn1 [Compound 172]', 'CDK2/Cyclin E1 complex (Homo sapiens, UniProt P24941)', '0.2 to 5 µM'),
  ('N#C[C@H]1CCN(C(=O)c2ccc3c(-c4nc(N[C@H]5CCCNC5)ncc4C(F)(F)F)c[nH]c3c2)C1 [Compound 293]', 'CDK2/Cyclin E1 complex (Homo sapiens, UniProt P24941)', '0.2 to 5 µM'),
  ('CC(O)c1cnc(N[C@H]2CCCNC2)nc1-c1c[nH]c2ccccc12 (mixture of isomers) [Compound 234]', 'CDK2/Cyclin E1 complex (Homo sapiens, UniProt P24941)', '> 5 µM'),
  ('CC1(O)CCC(c2cccc3c(-c4nc(N[C@H]5CCCNC5)ncc4C(F)(F)F)c[nH]c23)CC1 (single isomer, unassigned) [Compound 193]', 'CDK2/Cyclin E1 complex (Homo sapiens, UniProt P24941)', '0.2 to 5 µM'),
  ('FC(F)n1cc(-c2ccc3c(-c4nc(N[C@H]5CCCNC5)ncc4C(F)(F)F)c[nH]c3c2)cn1 [Compound 290]', 'CDK2/Cyclin E1 complex (Homo sapiens, UniProt P24941)', '0.2 to 5 µM'),
  ('Fc1cc2[nH]cc(-c3nc(N[C@H]4CCCNC4)ncc3Cl)c2cc1F [Compound 111]', 'CDK2/Cyclin E1 complex (Homo sapiens, UniProt P24941)', '0.2 to 5 µM');
